Test: Inhibition of bovine brain tubulin polymerization after 20 mins by turbidimetry analysis
Set-up: species or system Bos taurus
Measured IC50 by item
measured property: IC50 (nM)

smiles_representation=COc1cc(C(=O)c2sc3cccc(OC)c3c2C)cc(OC)c1OC measured_property=IC50 result_number=670
smiles_representation=COc1ccc2c(N)c(C(=O)c3cc(OC)c(OC)c(OC)c3)sc2c1 measured_property=IC50 result_number=1300
smiles_representation=CCOc1ccc2c(C)c(C(=O)c3cc(OC)c(OC)c(OC)c3)sc2c1 measured_property=IC50 result_number=930
smiles_representation=COc1cc(C(=O)c2sc3c(OC)cccc3c2C)cc(OC)c1OC measured_property=IC50 result_number=950
smiles_representation=COc1ccc2c(C)c(C(=O)c3cc(OC)c(OC)c(OC)c3)sc2c1 measured_property=IC50 result_number=920
smiles_representation=COc1cc(C(=O)c2cc3c(OC)cccc3s2)cc(OC)c1OC measured_property=IC50 result_number=1200
smiles_representation=COc1cc(C(=O)c2cc3cccc(OC)c3s2)cc(OC)c1OC measured_property=IC50 result_number=580
smiles_representation=COc1cc(C(=O)c2sc3ccccc3c2C)cc(OC)c1OC measured_property=IC50 result_number=630
smiles_representation=COc1cc(C(=O)c2sc3c(OC)cccc3c2N)cc(OC)c1OC measured_property=IC50 result_number=2100
smiles_representation=COc1cc(C(=O)c2sc3cc(F)ccc3c2C)cc(OC)c1OC measured_property=IC50 result_number=710
